Reference source for all entries: patent US20210388087A1

# TEST_TARGET: T1, Human CD3eg linker (human)
# T1 construct: single-chain construct; also called recombinant human CD3
# T1 chain: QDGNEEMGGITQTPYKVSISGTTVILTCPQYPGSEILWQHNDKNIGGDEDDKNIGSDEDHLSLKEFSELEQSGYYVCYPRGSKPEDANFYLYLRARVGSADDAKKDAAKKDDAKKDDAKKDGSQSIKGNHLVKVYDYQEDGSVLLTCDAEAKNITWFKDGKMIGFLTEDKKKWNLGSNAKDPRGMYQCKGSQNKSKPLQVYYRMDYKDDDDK
# ASSAY_DETAILS: SPR, vs unmutated H183/L072
Catalogue of fold change of affinity values
State just the number; it will be interpreted in fold.

Please review the entries below; each comes with its answer.
dBBDu183H P61G/dBBDu072L (antibody, name in Kabat numbering, V domains shown) VH: QVQLVESGGGLVQPGRSLRLSCAASGFTFSNAWMHWVRQAPGKGLEWVAQIKDKGNAYAAYYAGSVKGRFTISRDDSKNSIYLQMNSLKTEDTAVYYCHYVHYASASTVLPAFGVDAWGQGTTVTVSS VL: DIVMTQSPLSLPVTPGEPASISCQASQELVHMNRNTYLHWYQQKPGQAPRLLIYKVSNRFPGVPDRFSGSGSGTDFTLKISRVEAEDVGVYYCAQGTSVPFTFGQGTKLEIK
1.5
dBBDu183H V100cD/dBBDu072L (antibody, name in Kabat numbering, V domains shown) VH: QVQLVESGGGLVQPGRSLRLSCAASGFTFSNAWMHWVRQAPGKGLEWVAQIKDKGNAYAAYYAPSVKGRFTISRDDSKNSIYLQMNSLKTEDTAVYYCHYVHYASASTDLPAFGVDAWGQGTTVTVSS VL: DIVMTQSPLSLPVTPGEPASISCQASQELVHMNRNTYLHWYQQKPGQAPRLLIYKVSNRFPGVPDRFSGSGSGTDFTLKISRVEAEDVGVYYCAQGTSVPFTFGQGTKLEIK
0.8
dBBDu183H A100fK/dBBDu072L (antibody, name in Kabat numbering, V domains shown) VH: QVQLVESGGGLVQPGRSLRLSCAASGFTFSNAWMHWVRQAPGKGLEWVAQIKDKGNAYAAYYAPSVKGRFTISRDDSKNSIYLQMNSLKTEDTAVYYCHYVHYASASTVLPKFGVDAWGQGTTVTVSS VL: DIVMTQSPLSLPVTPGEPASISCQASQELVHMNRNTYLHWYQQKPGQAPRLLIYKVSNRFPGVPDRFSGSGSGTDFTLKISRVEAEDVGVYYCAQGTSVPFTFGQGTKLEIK
1.4
dBBDu183H V100cQ/dBBDu072L (antibody, name in Kabat numbering, V domains shown) VH: QVQLVESGGGLVQPGRSLRLSCAASGFTFSNAWMHWVRQAPGKGLEWVAQIKDKGNAYAAYYAPSVKGRFTISRDDSKNSIYLQMNSLKTEDTAVYYCHYVHYASASTQLPAFGVDAWGQGTTVTVSS VL: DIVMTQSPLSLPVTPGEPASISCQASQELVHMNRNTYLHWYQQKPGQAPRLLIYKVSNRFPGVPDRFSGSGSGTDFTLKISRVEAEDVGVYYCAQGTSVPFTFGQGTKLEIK
1.4

Next up:
Query: fold change of affinity; subject: dBBDu183H K64W/dBBDu072L (antibody, name in Kabat numbering, V domains shown) VH: QVQLVESGGGLVQPGRSLRLSCAASGFTFSNAWMHWVRQAPGKGLEWVAQIKDKGNAYAAYYAPSVWGRFTISRDDSKNSIYLQMNSLKTEDTAVYYCHYVHYASASTVLPAFGVDAWGQGTTVTVSS VL: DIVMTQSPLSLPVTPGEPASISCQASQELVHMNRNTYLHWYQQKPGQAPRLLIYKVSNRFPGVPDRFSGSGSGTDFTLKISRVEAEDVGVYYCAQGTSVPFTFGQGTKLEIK
1
